- System: P. falciparum Cam3.II lines
- protocol details: Isobologram analyses (fixed-ratio drug combinations)
- Assay type: cell-based, Plasmodium falciparum
- cond: combined with WLL; Asynchronous, 72 hr; Cam3.II K13C580Y
test readout: Mean of the sums of FIC50 (mean ΣFIC50)
Numbers only.

Completed entries (count: 6):
compound	Mean of the sums of FIC50 (mean ΣFIC50)
O=C(O)CCc1cccc2c1B(O)OC2 [AN3661]	1.58
C=CC(=O)N1C/C(=C\c2ccc([N+](=O)[O-])cc2)C(=O)/C(=C/c2ccc([N+](=O)[O-])cc2)C1 [b-AP15]	1.11
O=C(NCCN1CCCC1)c1cc(-c2ccc(CN3CCOCC3)cc2)nc2ccc(F)cc12 [DDD107498]	1.60
CC1(C)C(N(O)C(=O)Nc2ccc(Cl)cc2)N(c2ccc(Cl)cc2)C(=O)N1CC(=O)N/N=C/C=C/c1ccc([N+](=O)[O-])o1 (centres unmarked) [ESI, eeyarestatin I]	1.29
c1cc([C@H]2CC[C@]3(CC2)OO[C@]2(O3)C3CC4CC(C3)CC2C4)ccc1OCCN1CCOCC1 [OZ439]	1.10
C[C@@H]1C[C@@H]([C@H](O)CC2CC(=O)NC(=O)C2)C(=O)[C@@H](C)C1 [CHX, cycloheximide]	1.40

Hey, quick one: what's Mean of the sums of FIC50 (mean ΣFIC50) for each of these?
1. Cc1cc(Nc2ccc(S(F)(F)(F)(F)F)cc2)n2nc(C(C)(F)F)nc2n1 [DSM265]
2. C[C@H]1Cc2c([nH]c3cc(Cl)c(F)cc23)[C@@]2(N1)C(=O)Nc1ccc(Cl)cc12 [NITD609]

Result:
1. 1.46
2. 1.67

###

- Tested on: P. falciparum Cam3.II lines
- protocol details: Isobologram analyses (fixed-ratio drug combinations)
- Type: cell-based, Plasmodium falciparum
- cond: combined with WLL; Rings, 3 hr exposure; Cam3.II K13C580Y
test readout: Mean of the sums of FIC50 (mean ΣFIC50)
Answers are plain numbers.

compound	value
CCCCN(CCCC)CC(O)c1cc(Cl)cc2c1-c1ccc(Cl)cc1/C2=C/c1ccc(Cl)cc1 (stereo not drawn) [LMF, lumefantrine]	1.13

Hey, quick one: what's Mean of the sums of FIC50 (mean ΣFIC50) for each of these?
1. CC1(C)C(N(O)C(=O)Nc2ccc(Cl)cc2)N(c2ccc(Cl)cc2)C(=O)N1CC(=O)N/N=C/C=C/c1ccc([N+](=O)[O-])o1 (stereo not drawn) [ESI, eeyarestatin I]
2. O=C1C(O)=C([C@H]2CC[C@H](c3ccc(Cl)cc3)CC2)C(=O)c2ccccc21 [ATQ, atovaquone]
3. Clc1ccc2c(N3CCN(CCCN4CCN(c5ccnc6cc(Cl)ccc56)CC4)CC3)ccnc2c1 [PPQ, piperaquine]
4. C=CC(=O)N1C/C(=C\c2ccc([N+](=O)[O-])cc2)C(=O)/C(=C/c2ccc([N+](=O)[O-])cc2)C1 [b-AP15]

Result:
1.09
1.54
1.41
0.77

Hey, quick one: what's Mean of the sums of FIC50 (mean ΣFIC50) for each of these?
1. C[C@H]1[C@@H](O)O[C@@H]2O[C@@]3(C)CC[C@H]4[C@H](C)CC[C@@H]1[C@@]24OO3 [DHA, dihydroartemisinin]
2. CN(C)c1ccc2nc3ccc(=[N+](C)C)cc-3sc2c1 [MB, methylene blue]

Result:
[0.77, 0.84]

Hey, quick one: what's Mean of the sums of FIC50 (mean ΣFIC50) for each of these?
1. c1cc([C@H]2CC[C@]3(CC2)OO[C@]2(O3)C3CC4CC(C3)CC2C4)ccc1OCCN1CCOCC1 [OZ439]
2. CCN(CC)CCCC(C)Nc1ccnc2cc(Cl)ccc12 (stereo not drawn) [CQ, chloroquine]

Result:
1. 0.79
2. 1.70

The measurements presented in this section are drawn from paper PMC6553790.
